experiment: Toxicity in rat; format: organism-based; conditions: in vivo
Mark y only when LD50 stays strictly below 500 mg/kg. Values equal to the cut-off are n.

Ask: Does this compound meet the criterion LD50 < 500 mg/kg? CC(=O)c1nn(-c2ccc(S(N)(=O)=O)cc2)/c(=N/NC(=O)CC(=O)Nc2nccs2)s1
Result: n

Ask: Also check COC(=O)/C(C(=O)Nc1nccs1)=C1/SC(C(C)=O)=NN1c1ccc(S(=O)(=O)N2C(=O)c3c(Cl)c(Cl)c(Cl)c(Cl)c3C2=O)cc1
Result: n

Ask: Also check COC(=O)/C(C(=O)Nc1nccs1)=C1/SCC(=O)N1c1ccccc1
Result: y

Ask: Also check CCOC(=O)C1=NN(c2ccc(Cl)cc2)/C(=C(/C(=O)Nc2nccs2)C(=O)OC)S1
Result: y

Ask: Also check NNC(=O)CC(=O)Nc1nccs1
Result: n

Ask: Also check O=C(CC(=O)Nn1c(=O)c2cc3c(=O)n(NC(=O)CC(=O)Nc4nccs4)c(=O)c3cc2c1=O)Nc1nccs1
Result: y

Ask: Also check O=C(CC(=O)Nn1c(-c2ccccc2)csc1=S)Nc1nccs1
Result: y
